Data origin, for the record: the supplement of paper PMC9663587

system: SKBR3; test: area over the GR curve, 72 h; higher = more effect;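 further: Dye Drop or Deep Dye Drop imaging of viable cells in 384-well plates (Hoechst nuclei, LIVE/DEAD dye), nine half-log doses, GR normalized to DMSO controls and time-zero plates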

>  <Compound>
CC(=O)c1c(C)c2cnc(Nc3ccc(N4CCN(CCOCCOCCOCCNC(=O)COc5cccc6c5C(=O)N(C5CCC(=O)NC5=O)C6=O)CC4)cn3)nc2n(C2CCCC2)c1=O (stereo unspecified) [BSJ-03-123] (max 10 µM)

>  <Experimental System>
SKBR3

>  <area over the GR curve / GR>
0.338

$$$$
>  <Compound>
CN(C)C/C=C/C(=O)Nc1ccc(O[C@@H]2CCC[C@@H](Nc3ncc(Cl)c(-c4c[nH]c5ccccc45)n3)C2)cc1 [BSJ-01-175] (max 10 µM)

>  <Experimental System>
SKBR3

>  <area over the GR curve / GR>
1.04

$$$$
>  <Compound>
CS(=O)(=O)N1CCN(Cc2cc3nc(-c4cccc5[nH]ncc45)nc(N4CCOCC4)c3s2)CC1 [Pictilisib/GDC0941] (max 10 µM)

>  <Experimental System>
SKBR3

>  <area over the GR curve / GR>
0.512

$$$$
>  <Compound>
C=CCn1c(=O)c2cnc(Nc3ccc(N4CCN(C)CC4)cc3)nc2n1-c1cccc(C(C)(C)O)n1 [AZD1775] (max 10 µM)

>  <Experimental System>
SKBR3

>  <area over the GR curve / GR>
0.528

$$$$
>  <Compound>
O=C1NC(=NCc2cccs2)SC1=Cc1ccc2ncccc2c1 [R0-3306] (max 10 µM)

>  <Experimental System>
SKBR3

>  <area over the GR curve / GR>
0.163

$$$$
>  <Compound>
COc1cc([C@@H]2c3cc4c(cc3[C@@H](O[C@@H]3O[C@@H]5CO[C@@H](C)O[C@H]5[C@H](O)[C@H]3O)[C@H]3COC(=O)[C@H]23)OCO4)cc(OC)c1O [Etoposide] (max 10 µM)

>  <Experimental System>
SKBR3

>  <area over the GR curve / GR>
0.403

$$$$
